Data origin: patent US20150291598A1

This section presents molecules with their documented EC50 values.
test system: P. falciparum (NF54 or 3D7 strain); assay: Assay for P. falciparum proliferation in infected human blood cells (SYBR Green); format: cell-based, Plasmodium falciparum; settings: Plasmodium falciparum, Erythrocyte, 72 h, NF54 or 3D7 infected human erythrocytes, 72 hours; read-out: EC50 (nM), inhibitory efficacy in delaying P. falciparum proliferation in infected human blood cells

Molecular String	EC50
COC(=O)Nc1ccc(-c2cnc3cnc(C(=O)N(C)c4ccc(C)cn4)cn23)cn1	> 10000 nM
CS(=O)(=O)c1ccc2c(c1)CCN2C(=O)c1cn2c(-c3ccc(C(F)(F)F)cc3)cnc2cn1	> 10000 nM
O=C(c1cn2c(-c3ccc(C(F)(F)F)cc3)cnc2cn1)N1CCc2cc(F)ccc21	> 10000 nM
